# merged literature set: pKi with Beta-secretase 1 (Homo sapiens)
pKi: −log10 of the molar value.

>  <COMPOUND>
CN1C(=N)N[C@](C)(c2cc(-c3nnc(C4Cc5ccccc5C4)o3)ccc2F)CS1(=O)=O

>  <READOUT QUALIFIER>
=

>  <pKi>
5.11

$$$$
>  <COMPOUND>
C[C@@]1(c2cc(NC(=O)c3cnc(C(F)(F)F)cn3)ccc2F)CS(=O)(=O)C2(CCCC2)C(=N)N1

>  <READOUT QUALIFIER>
=

>  <pKi>
7.89

$$$$
>  <COMPOUND>
FC(F)(F)c1cccc(COc2ccc3c(c2)c2c(n3Cc3cccc4ccccc34)CNCC2)c1

>  <READOUT QUALIFIER>
>

>  <pKi>
5.52

$$$$
>  <COMPOUND>
CC1(C)C(=N)N[C@@]2(COCc3ccc(NC(=O)c4cnsn4)cc32)CS1(=O)=O

>  <READOUT QUALIFIER>
=

>  <pKi>
6.77

$$$$
>  <COMPOUND>
COc1ccc(C(=O)Nc2ccc(F)c([C@]3(C)CC[C@](F)(CF)C(N)=N3)c2)nc1

>  <READOUT QUALIFIER>
=

>  <pKi>
6.89

$$$$
>  <COMPOUND>
C[C@@]1(c2cc(NC(=O)c3ccc(C#N)cn3)ccc2F)CS(=O)(=O)C2(CCC2)C(N)=N1

>  <READOUT QUALIFIER>
=

>  <pKi>
8.27

$$$$
>  <COMPOUND>
O=C(NCc1ccco1)C1CNCCC1c1ccc(COc2ccccc2C(F)(F)F)cc1 (stereo not shown)

>  <READOUT QUALIFIER>
<

>  <pKi>
4.52

$$$$
>  <COMPOUND>
CN1C(=N)N[C@](C)(c2sc3c(-c4ccc(-n5cccn5)nc4)cccc3c2F)CS1(=O)=O

>  <READOUT QUALIFIER>
=

>  <pKi>
8.00

$$$$
>  <COMPOUND>
CN1CCC2(CC1)C(=N)N[C@](C)(c1cc(NC(=O)c3ccc(F)cn3)ccc1F)CS2(=O)=O

>  <READOUT QUALIFIER>
=

>  <pKi>
7.43

$$$$
>  <COMPOUND>
CN1C(=N)N[C@](C)(c2cc(NC(=S)c3ccc(F)cn3)ccc2F)CS1(=O)=O

>  <READOUT QUALIFIER>
=

>  <pKi>
7.60

$$$$
>  <COMPOUND>
CN1C[C@@](C)(c2cc(NC(=O)c3ncc(C(F)(F)F)cn3)ccc2F)NC(=N)C(C)(C)S1(=O)=O

>  <READOUT QUALIFIER>
=

>  <pKi>
6.72

$$$$
>  <COMPOUND>
Cc1cnc(C(=O)Nc2ccc(F)c([C@]34CCC[C@H]3S(=O)(=O)N(C)C(=N)N4)c2)cn1

>  <READOUT QUALIFIER>
=

>  <pKi>
6.90

$$$$
>  <COMPOUND>
O=C(NCC1CNCCC1c1ccc(COc2ccccc2C(F)(F)F)cc1)Nc1ccc2ccccc2c1 (stereo not shown)

>  <READOUT QUALIFIER>
>

>  <pKi>
5.52

$$$$
>  <COMPOUND>
[2H]C([2H])([2H])Oc1ccc(C(=O)Nc2ccc(F)c([C@@]3(C)N=C(N)[C@@](C)(F)CC3(F)F)c2)nc1

>  <READOUT QUALIFIER>
=

>  <pKi>
7.85

$$$$
>  <COMPOUND>
FC(F)Oc1ccc(COc2ccc3c(c2)c2c(n3Cc3ccc4ccccc4c3)CNCC2)cc1

>  <READOUT QUALIFIER>
>

>  <pKi>
5.52

$$$$
